experiment: plasma pharmacokinetics in patients (HPLC–MS/MS, non-compartmental analysis)
Format: in vivo, human
conditionDescription: human, plasma, oral, Dose-level 3: dacomitinib 15 mg QD + PD-0325901 4 mg BID; Cycle 2 Day 1; n = 2; read-out: Cmax PD-0325901, mean (CV%)

{"structure": "O=C(NOC[C@H](O)CO)c1ccc(F)c(F)c1Nc1ccc(I)cc1F", "Cmax [ng/mL]": 125}

###

experiment: plasma pharmacokinetics in patients (HPLC–MS/MS, non-compartmental analysis)
Type: in vivo, human
conditionDescription: human, plasma, oral, Dose-level 2: dacomitinib 15 mg QD + PD-0325901 3 mg BID; Cycle 1 Day 1; n = 6; read-out: Cmax PD-0325901, mean (CV%)

{"compound": "O=C(NOC[C@H](O)CO)c1ccc(F)c(F)c1Nc1ccc(I)cc1F [PD-0325901]", "Cmax [ng/mL]": 85}

###

experiment: plasma pharmacokinetics in patients (HPLC–MS/MS, non-compartmental analysis)
Format: in vivo, human
conditionDescription: human, plasma, oral, 30 mg, All 30 mg doses; Cycle 1 Day 1; n = 17; read-out: tmax dacomitinib, mean
Procedure: For pharmacokinetic analyses, serial blood samples were obtained from all patients prior to treatment administration on day 1, and 1, 2, 3, 4, 6, 8, 12, 24, 72 and 144 h after the first dose. […] Transitions from m/z 480 to 329 and m/z 489 to 255 were monitored for the detection of dacomitinib and PD-0325901, respectively. Stable isotope-labelled internal standards were used for the quantification. […]

{"compound": "COc1cc2ncnc(Nc3ccc(F)c(Cl)c3)c2cc1NC(=O)/C=C/CN1CCCCC1 [dacomitinib]", "Tmax / h": 8.3}

###

experiment: plasma pharmacokinetics in patients (HPLC–MS/MS, non-compartmental analysis)
Format: in vivo, human
conditionDescription: human, plasma, oral, 6 mg, All 6 mg doses; Cycle 1 Day 1; n = 14; read-out: Cmax PD-0325901, mean (CV%)

{"compound": "O=C(NOC[C@H](O)CO)c1ccc(F)c(F)c1Nc1ccc(I)cc1F [PD-0325901]", "Cmax, ng/mL": 227}

###

experiment: plasma pharmacokinetics in patients (HPLC–MS/MS, non-compartmental analysis)
Type: in vivo, human
conditionDescription: human, plasma, oral, 6 mg, All 6 mg doses; Cycle 1 Day 1; n = 14; read-out: AUC0-12h PD-0325901, mean (CV%)

{"molecule": "O=C(NOC[C@H](O)CO)c1ccc(F)c(F)c1Nc1ccc(I)cc1F [PD-0325901]", "AUC(0-t) (ng·h/mL)": 706}

###

experiment: plasma pharmacokinetics in patients (HPLC–MS/MS, non-compartmental analysis)
Format: in vivo, human
conditionDescription: human, plasma, oral, Dose-level 6: dacomitinib 30 mg (4/3) QD + PD-0325901 6 mg BID; Cycle 1 Day 1; n = 3; read-out: Cmax dacomitinib, mean (CV%)
Experimental: For pharmacokinetic analyses, serial blood samples were obtained from all patients prior to treatment administration on day 1, and 1, 2, 3, 4, 6, 8, 12, 24, 72 and 144 h after the first dose. […] Transitions from m/z 480 to 329 and m/z 489 to 255 were monitored for the detection of dacomitinib and PD-0325901, respectively. Stable isotope-labelled internal standards were used for the quantification. […]

{"structure": "COc1cc2ncnc(Nc3ccc(F)c(Cl)c3)c2cc1NC(=O)/C=C/CN1CCCCC1", "Cmax": "11.1 ng/mL"}

###

experiment: plasma pharmacokinetics in patients (HPLC–MS/MS, non-compartmental analysis)
Format: in vivo, human
conditionDescription: human, plasma, oral, Dose-level 6: dacomitinib 30 mg (4/3) QD + PD-0325901 6 mg BID; Cycle 1 Day 1; n = 3; read-out: AUC0-12h PD-0325901, mean (CV%)

{"compound": "O=C(NOC[C@H](O)CO)c1ccc(F)c(F)c1Nc1ccc(I)cc1F [PD-0325901]", "uom": "ng·h/mL", "AUC(0-t)": 635}

###

experiment: plasma pharmacokinetics in patients (HPLC–MS/MS, non-compartmental analysis)
Assay type: in vivo, human
conditionDescription: human, plasma, oral, 15 mg, All 15 mg doses; Cycle 1 Day 1; n = 23; read-out: AUC0-24h dacomitinib, mean (CV%)

{"structure": "COc1cc2ncnc(Nc3ccc(F)c(Cl)c3)c2cc1NC(=O)/C=C/CN1CCCCC1", "AUC(0-t), ng·h/mL": 122}

###

experiment: plasma pharmacokinetics in patients (HPLC–MS/MS, non-compartmental analysis)
Format: in vivo, human
conditionDescription: human, plasma, oral, Dose-level 6: dacomitinib 30 mg (4/3) QD + PD-0325901 6 mg BID; Cycle 1 Day 1; n = 3; read-out: tmax dacomitinib, mean
measuredEndpoint: Tmax (h)

{"structure": "COc1cc2ncnc(Nc3ccc(F)c(Cl)c3)c2cc1NC(=O)/C=C/CN1CCCCC1", "measuredResult": 7.3}

###

experiment: plasma pharmacokinetics in patients (HPLC–MS/MS, non-compartmental analysis)
Type: in vivo, human
conditionDescription: human, plasma, oral, Dose-level 2: dacomitinib 15 mg QD + PD-0325901 3 mg BID; Cycle 2 Day 1; n = 5; read-out: Cmax dacomitinib, mean (CV%)
measuredEndpoint: Cmax (ng/mL)

{"structure": "COc1cc2ncnc(Nc3ccc(F)c(Cl)c3)c2cc1NC(=O)/C=C/CN1CCCCC1", "uom": "ng/mL", "measuredResult": 26}

###

experiment: plasma pharmacokinetics in patients (HPLC–MS/MS, non-compartmental analysis)
Format: in vivo, human
conditionDescription: human, plasma, oral, 30 mg, All 30 mg doses; Cycle 2 Day 1 or last day of concomitant use; n =11; read-out: tmax dacomitinib, mean
measuredEndpoint: Tmax (h)

{"structure": "COc1cc2ncnc(Nc3ccc(F)c(Cl)c3)c2cc1NC(=O)/C=C/CN1CCCCC1", "measuredResult": 4.8}

###

experiment: plasma pharmacokinetics in patients (HPLC–MS/MS, non-compartmental analysis)
Format: in vivo, human
conditionDescription: human, plasma, oral, 15 mg, All 15 mg doses; Cycle 1 Day 1; n = 23; read-out: tmax dacomitinib, mean

{"structure": "COc1cc2ncnc(Nc3ccc(F)c(Cl)c3)c2cc1NC(=O)/C=C/CN1CCCCC1", "Tmax": "7.6 h"}

###

experiment: plasma pharmacokinetics in patients (HPLC–MS/MS, non-compartmental analysis)
Type: in vivo, human
conditionDescription: human, plasma, oral, Dose-level 4: dacomitinib 15 mg QD + PD-0325901 5 mg BID; Cycle 2 Day 1; n = 3; read-out: AUC0-24h dacomitinib, mean (CV%)

{"structure": "COc1cc2ncnc(Nc3ccc(F)c(Cl)c3)c2cc1NC(=O)/C=C/CN1CCCCC1", "AUC(0-t)": "654 ng·h/mL"}

###

experiment: plasma pharmacokinetics in patients (HPLC–MS/MS, non-compartmental analysis)
Assay type: in vivo, human
conditionDescription: human, plasma, oral, Dose-level 5: dacomitinib 15 mg QD + PD-0325901 6 mg BID; Cycle 1 Day 1; n = 8; read-out: Cmax dacomitinib, mean (CV%)
measuredEndpoint: Cmax (ng/mL)

{"molecule": "COc1cc2ncnc(Nc3ccc(F)c(Cl)c3)c2cc1NC(=O)/C=C/CN1CCCCC1 [dacomitinib]", "measuredEndpoint": "Cmax", "uom": "ng/mL", "measuredResult": 11.4}

###

experiment: plasma pharmacokinetics in patients (HPLC–MS/MS, non-compartmental analysis)
Format: in vivo, human
conditionDescription: human, plasma, oral, Dose-level 8: dacomitinib 30 mg (5/2) QD + PD-0325901 5 mg (5/2) BID; last day of concomitant use of both drugs; n=2; read-out: AUC0-24h dacomitinib, mean (CV%)
measuredEndpoint: AUC(0-t) (ng·h/mL)

{"compound": "COc1cc2ncnc(Nc3ccc(F)c(Cl)c3)c2cc1NC(=O)/C=C/CN1CCCCC1 [dacomitinib]", "measuredResult": 789}

###

experiment: plasma pharmacokinetics in patients (HPLC–MS/MS, non-compartmental analysis)
Type: in vivo, human
conditionDescription: human, plasma, oral, Dose-level 8: dacomitinib 30 mg (5/2) QD + PD-0325901 5 mg (5/2) BID; Cycle 1 Day 1; n = 5; read-out: tmax dacomitinib, mean

{"structure": "COc1cc2ncnc(Nc3ccc(F)c(Cl)c3)c2cc1NC(=O)/C=C/CN1CCCCC1", "Tmax, h": 6.6}

###

experiment: plasma pharmacokinetics in patients (HPLC–MS/MS, non-compartmental analysis)
Assay type: in vivo, human
conditionDescription: human, plasma, oral; patients, combination treatment; read-out: half-life, range

{"compound": "O=C(NOC[C@H](O)CO)c1ccc(F)c(F)c1Nc1ccc(I)cc1F [PD-0325901]", "half-life": "5 to 9.9 h"}

###

experiment: plasma pharmacokinetics in patients (HPLC–MS/MS, non-compartmental analysis)
Format: in vivo, human
conditionDescription: human, plasma, oral, Dose-level 4: dacomitinib 15 mg QD + PD-0325901 5 mg BID; Cycle 1 Day 1; n = 3; read-out: AUC0-24h dacomitinib, mean (CV%)
Procedure: For pharmacokinetic analyses, serial blood samples were obtained from all patients prior to treatment administration on day 1, and 1, 2, 3, 4, 6, 8, 12, 24, 72 and 144 h after the first dose. […] Transitions from m/z 480 to 329 and m/z 489 to 255 were monitored for the detection of dacomitinib and PD-0325901, respectively. Stable isotope-labelled internal standards were used for the quantification. […]

{"structure": "COc1cc2ncnc(Nc3ccc(F)c(Cl)c3)c2cc1NC(=O)/C=C/CN1CCCCC1", "AUC(0-t) [ng·h/mL]": 137}

Attribution: paper PMC7156736
